tested on: Tyrosine-protein kinase Fgr (Homo sapiens)
assay context: at 10 µM
Task for the reader: assign each of the following compounds its reported residual activity.
Dear colleague, please return just the value in %, with no unit written.

Notebook: `O=S(=O)(NCCNC/C=C/c1ccc(Br)cc1)c1cccc2cnccc12` , residual activity read as 59

Notebook: `O=C1NC(=O)C(c2cn(CCCn3ccnc3)c3ccccc23)=C1Nc1ccccc1` , residual activity read as 59

Notebook: `O=C1NC(=O)C(c2c[nH]c3ccccc23)=C1c1c[nH]c2ccccc12` , residual activity read as 60

----------
tested on: High affinity nerve growth factor receptor (Homo sapiens) (UniProt P04629)
Sequence (P04629 33-796 limits assumed): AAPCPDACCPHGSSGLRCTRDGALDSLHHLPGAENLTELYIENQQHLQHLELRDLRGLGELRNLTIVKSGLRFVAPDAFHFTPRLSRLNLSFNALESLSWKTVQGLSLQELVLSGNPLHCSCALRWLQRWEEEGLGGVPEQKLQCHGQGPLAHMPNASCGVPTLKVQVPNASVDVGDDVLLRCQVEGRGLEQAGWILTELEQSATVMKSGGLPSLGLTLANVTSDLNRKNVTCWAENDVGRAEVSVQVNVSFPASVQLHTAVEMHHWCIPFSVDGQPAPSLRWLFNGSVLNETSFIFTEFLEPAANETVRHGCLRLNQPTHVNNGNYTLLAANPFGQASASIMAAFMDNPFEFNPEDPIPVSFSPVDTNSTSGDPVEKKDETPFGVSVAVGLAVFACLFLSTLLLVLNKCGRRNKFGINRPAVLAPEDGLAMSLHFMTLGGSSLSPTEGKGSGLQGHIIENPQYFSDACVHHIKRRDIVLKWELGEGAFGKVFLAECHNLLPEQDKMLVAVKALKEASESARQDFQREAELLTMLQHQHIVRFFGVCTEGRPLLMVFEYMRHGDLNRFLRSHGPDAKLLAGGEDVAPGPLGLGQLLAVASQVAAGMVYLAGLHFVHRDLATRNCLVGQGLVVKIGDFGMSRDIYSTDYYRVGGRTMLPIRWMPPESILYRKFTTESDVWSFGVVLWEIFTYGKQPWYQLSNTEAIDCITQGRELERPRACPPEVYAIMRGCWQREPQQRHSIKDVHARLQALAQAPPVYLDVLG
assay context: at 1 µM
Task for the reader: assign each of the following compounds its reported residual activity.
Dear colleague, please return just the value in %, with no unit written.

residual activity for High affinity nerve growth factor receptor (Homo sapiens) (UniProt P04629) with input `Nc1n[nH]c2nc3ccccc3nc12` equals 86

residual activity for High affinity nerve growth factor receptor (Homo sapiens) (UniProt P04629) with input `O=C1Cc2c([nH]c3ccc([N+](=O)[O-])cc23)-c2ccccc2N1` equals 72

residual activity for High affinity nerve growth factor receptor (Homo sapiens) (UniProt P04629) with input `NC(=O)c1ccc(-c2nc(-c3ccc4c(c3)OCCO4)c(-c3ccccn3)[nH]2)cc1` equals 95

residual activity for High affinity nerve growth factor receptor (Homo sapiens) (UniProt P04629) with input `COc1ccc(-c2cnc3c(-c4ccsc4)cnn3c2)cc1` equals 76

residual activity for High affinity nerve growth factor receptor (Homo sapiens) (UniProt P04629) with input `O=C1NC(=O)C(c2c[nH]c3ccccc23)=C1c1c[nH]c2ccccc12` equals 58

residual activity for High affinity nerve growth factor receptor (Homo sapiens) (UniProt P04629) with input `Oc1cccc(-c2nc(N3CCOCC3)c3oc4ncccc4c3n2)c1` equals 93

residual activity for High affinity nerve growth factor receptor (Homo sapiens) (UniProt P04629) with input `O=C(c1ccccc1)c1ccc(N2CCOCC2)cc1O` equals 76

residual activity for High affinity nerve growth factor receptor (Homo sapiens) (UniProt P04629) with input `N#C/C(=C1/Nc2ccccc2S1)c1ccnc(NCCc2cccnc2)n1` equals 56

residual activity for High affinity nerve growth factor receptor (Homo sapiens) (UniProt P04629) with input `COc1cc2ncnc(Nc3cccc(Cl)c3)c2cc1OC` equals 88

residual activity for High affinity nerve growth factor receptor (Homo sapiens) (UniProt P04629) with input `CCN(CC)CCNC(=O)c1c(C)[nH]c(/C=C2\C(=O)Nc3ccc(Cl)cc32)c1C` equals -1

residual activity for High affinity nerve growth factor receptor (Homo sapiens) (UniProt P04629) with input `CCOC(=O)c1c(C)[nH]c(/C=C2\C(=O)Nc3ccccc32)c1C` equals 13
